test system: EKVX; experiment: relative viability (nuclei count vs DMSO), 5 days (fraction); higher = more cells survive; conditions: first compound 0.8 µM
reportedEndpoint: relative viability
Answers are plain numbers.

C=C1C(=O)O[C@@H](CCCCCCCC)[C@@H]1C(=O)O [C-75] + C[C@]1(O)C[C@@H](c2nc(-c3ccc4ccc(-c5ccccc5)nc4c3)c3c(N)nccn32)C1 [Linsitinib] (partner 1 µM)
0.906

For the 2 compounds below, give their relative viability values.
1. C=C1C(=O)O[C@@H](CCCCCCCC)[C@@H]1C(=O)O [C-75] + CS(=O)(=O)CCNCc1ccc(-c2ccc3ncnc(Nc4ccc(OCc5cccc(F)c5)c(Cl)c4)c3c2)o1 [Lapatinib] (partner 2 µM)
2. C=C1C(=O)O[C@@H](CCCCCCCC)[C@@H]1C(=O)O [C-75] + C[C@@H](Oc1cc(-c2cnn(C3CCNCC3)c2)cnc1N)c1c(Cl)ccc(F)c1Cl [Crizotinib] (partner 1 µM)

1. 0.224
2. 0.897

For the 6 compounds below, give their relative viability values.
1. C=C1C(=O)O[C@@H](CCCCCCCC)[C@@H]1C(=O)O [C-75] + COc1cc2c(Oc3ccc(NC(=O)C4(C(=O)Nc5ccc(F)cc5)CC4)cc3F)ccnc2cc1OCCCN1CCOCC1 [Foretinib] (partner 0.25 µM)
2. C=C1C(=O)O[C@@H](CCCCCCCC)[C@@H]1C(=O)O [C-75] + CS(=O)(=O)N1CCN(Cc2cc3nc(-c4cccc5[nH]ncc45)nc(N4CCOCC4)c3s2)CC1 [Pictilisib] (partner 1 µM)
3. Oc1nc(-c2ccc(C(F)(F)F)cc2)nc2c1CSCC2 [XAV939] + Cc1nc(NC(=O)N2CCC[C@H]2C(N)=O)sc1-c1ccnc(C(C)(C)C(F)(F)F)c1 [Alpelisib] (partner 2 µM)
4. C=C1C(=O)O[C@@H](CCCCCCCC)[C@@H]1C(=O)O [C-75] + CC1(C)CCC(c2ccc(Cl)cc2)=C(CN2CCN(c3ccc(C(=O)NS(=O)(=O)c4ccc(N[C@H](CCN5CCOCC5)CSc5ccccc5)c(S(=O)(=O)C(F)(F)F)c4)cc3)CC2)C1 [Navitoclax] (partner 0.5 µM)
5. Oc1nc(-c2ccc(C(F)(F)F)cc2)nc2c1CSCC2 [XAV939] + COc1cccc2cc(-c3nc([C@H]4CC[C@H](C(=O)O)CC4)n4ncnc(N)c34)[nH]c12 [OSI-027] (partner 0.5 µM)
6. C=C1C(=O)O[C@@H](CCCCCCCC)[C@@H]1C(=O)O [C-75] + CC(=O)c1c(C)c2cnc(Nc3ccc(N4CCNCC4)cn3)nc2n(C2CCCC2)c1=O [Palbociclib] (partner 0.5 µM)

1: 0.782; 2: 0.426; 3: 0.731; 4: 0.831; 5: 0.593; 6: 0.383

// data source = the supplement of paper PMC10307832
